System: HPV-16
Experimental Details: qPCR sensitivity against HPV-HNSCC tumor samples diluted among 10 ng normal human DNA
Run Parameters: Sample # 25
Assay Readout: Threshold of tumor cell numbers for HPV-16 detection (tumor cells)
Give the value, in units of tumor cells, as a plain number.

As a guide, the following entries are already answered.
molecule="BR E6-1: HPV-16 E6 region (172-373 bp) primer/probe set, SEQ ID NO: 58-60 (nucleic acid, chemistry not given here) DNA 1: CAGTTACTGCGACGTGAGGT DNA 2: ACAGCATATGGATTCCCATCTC DNA 3: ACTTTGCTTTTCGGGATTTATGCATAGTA" quantitative_result=1.2
molecule="BR E1-4: HPV-16 E1 region primer/probe set, SEQ ID NO: 37-39 (nucleic acid, chemistry not given here) DNA 1: ATGCACAATTGGCAGACACTA DNA 2: ACAATCCTTTACAATTTTTGCCTGT DNA 3: TAATGCAAGTGCCTTTCTAAAAAGT" quantitative_result=1.2
molecule="BR E1-5: HPV-16 E1 region primer/probe set, SEQ ID NO: 40-42 (same as SEQ ID NO: 1-3) (nucleic acid, chemistry not given here) DNA 1: GCACAATTGGCAGACACTAAT DNA 2: GCACAATCCTTTACAATTTTTGCC DNA 3: AGTAATGCAAGTGCCTTTCTAAAAAGTAATTC" quantitative_result=0.3
molecule="E6: previously designed (historical) HPV-16 E6 primers and Taqman probe, SEQ ID NO: 7-9, positive control (nucleic acid, Taqman probe, labels not given here) DNA 1: TCAGGACCCACAGGAGCG DNA 2: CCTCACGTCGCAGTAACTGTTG DNA 3: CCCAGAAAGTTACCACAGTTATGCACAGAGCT" quantitative_result=0.3
molecule="BR E1-6: HPV-16 E1 region primer/probe set, SEQ ID NO: 43-45 (nucleic acid, chemistry not given here) DNA 1: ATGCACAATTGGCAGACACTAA DNA 2: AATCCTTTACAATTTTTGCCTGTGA DNA 3: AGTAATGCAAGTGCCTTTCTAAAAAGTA" quantitative_result=1.2
molecule="E7: previously designed (historical) HPV-16 E7 primers and Taqman probe, SEQ ID NO: 10-12; part of CLIA test (nucleic acid, Taqman probe, labels not given here, part of CLIA test) DNA 1: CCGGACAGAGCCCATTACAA DNA 2: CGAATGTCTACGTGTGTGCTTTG DNA 3: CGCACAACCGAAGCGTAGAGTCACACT" quantitative_result=0.3

Now let's try a different one.
## Input Param item = HR E5L2-4: primer/probe set for junction between E5 and L2, SEQ ID NO: 55-57 (same as SEQ ID NO: 4-6) (nucleic acid, chemistry not given here) DNA 1: GCAAAACGCACAAAACGTGC DNA 2: GACATGTACCTGCCTGTTTGC DNA 3: CGGCTACCCAACTTTATAAAACA ; retrieve measured Threshold of tumor cell numbers for HPV-16 detection.
## Output 0.6
